Tested on: U87 IDH1mt ATRXwt
protocol.notes: Monotherapy treatment, U87 IDH1mt ATRXwt
Format: cell-based
measurement.context: read-out: Compound 20 IC50
Protocol: To evaluate the activity and potency of the PARP inhibitors described herein in combination with the standard of care chemotherapy Temozolamide (TMZ), ionizing radiation (IR) and the emerging chemotherapy VAL-083, U87, SJG2 and BT245 glioblastoma cells were assayed. Parental U87 cell lines were obtained from the AstraZeneca Global Cell Bank in Alderley Park, UK and the isocistrate dehydrogenase 1 mutant cell line (IDH1 mt R1 32H) was licensed in from ATCC. […]
reported.property: IC50

compound CNC(=O)c1ccc(N2CCN(Cc3ccc4nc(C)c(=O)[nH]c4c3F)CC2)c(F)n1 , IC50 observed: > 100 µM
